method.description: Cytotoxicity in mammalian cells
Type: cell-based
experimental.context: African green monkey, Vero cells (African green monkey kidney epithelial cells)
value.kind: IC50 (nM)

CCc1nc(N)nc(N)c1OCCCOc1cc(C)nc2ccc(OCCCC(=O)O)cc12; 420
CCc1nc(N)nc(N)c1OCCCOc1cc(C)nc2cc(F)ccc12; 100
CCc1nc(N)nc(N)c1OCCCOc1ccnc2ccc(F)cc12; 37
CCOC(=O)CCc1ccccc1OCCCOc1c(N)nc(N)nc1CC; 1250

====

study.target: Pf DHFR WT (Plasmodium falciparum)
Sequence (A7UD81 1-608): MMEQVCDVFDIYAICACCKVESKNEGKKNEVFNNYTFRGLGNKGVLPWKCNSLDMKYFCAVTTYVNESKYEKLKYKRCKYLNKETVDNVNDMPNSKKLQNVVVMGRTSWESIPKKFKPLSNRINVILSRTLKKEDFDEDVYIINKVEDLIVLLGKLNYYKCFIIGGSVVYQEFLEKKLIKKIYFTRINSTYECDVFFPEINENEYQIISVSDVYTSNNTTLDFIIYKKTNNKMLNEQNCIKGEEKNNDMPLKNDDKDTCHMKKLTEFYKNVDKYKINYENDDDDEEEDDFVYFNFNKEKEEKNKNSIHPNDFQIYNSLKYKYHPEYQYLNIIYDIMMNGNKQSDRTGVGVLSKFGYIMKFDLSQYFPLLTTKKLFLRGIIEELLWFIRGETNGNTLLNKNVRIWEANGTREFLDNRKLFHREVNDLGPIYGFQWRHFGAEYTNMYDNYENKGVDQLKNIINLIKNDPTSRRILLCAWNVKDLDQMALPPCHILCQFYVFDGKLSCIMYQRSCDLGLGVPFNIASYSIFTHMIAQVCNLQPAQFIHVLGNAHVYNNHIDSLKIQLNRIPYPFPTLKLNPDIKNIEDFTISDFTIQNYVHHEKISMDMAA
pKi: −log10 of the molar value.
pKi values, listed per item
value.kind: pKi

CCc1nc(N)nc(N)c1OCCCOc1ccnc2ccccc12; 8.92
CCOC(=O)CCCOc1ccc2nc(C)cc(OCCCOc3c(N)nc(N)nc3CC)c2c1; 9.28
CCc1nc(N)nc(N)c1OCCCOc1ccnc2ccc(Cl)cc12; 8.98
CCc1nc(N)nc(N)c1OCCCOc1ccnc2ccc(F)cc12; 8.85
CCc1nc(N)nc(N)c1OCCCOc1cc(C)nc2ccc(OCCCC(=O)O)cc12; 9.82

====

System: P. falciparum TM4/8.2 (wild type)
method.description: In vitro anti-plasmodial activity, [3H]-hypoxanthine incorporation
Assay type: cell-based, Plasmodium falciparum
experimental.context: Plasmodium falciparum, read-out: IC50-P. falciparum TM4/8.2 (WT)
value.kind: IC50 (nM)

CCN(CC)CCCC(C)Nc1ccnc2cc(Cl)ccc12 (stereo not shown) [Chloroquine, chloroquine, reference compound]; 27

====

study.target: Pf DHFR C59R + S108N (Plasmodium falciparum, UniProt A7UD81, C59R/S108N)
Sequence (A7UD81 whole entry C59R/S108N): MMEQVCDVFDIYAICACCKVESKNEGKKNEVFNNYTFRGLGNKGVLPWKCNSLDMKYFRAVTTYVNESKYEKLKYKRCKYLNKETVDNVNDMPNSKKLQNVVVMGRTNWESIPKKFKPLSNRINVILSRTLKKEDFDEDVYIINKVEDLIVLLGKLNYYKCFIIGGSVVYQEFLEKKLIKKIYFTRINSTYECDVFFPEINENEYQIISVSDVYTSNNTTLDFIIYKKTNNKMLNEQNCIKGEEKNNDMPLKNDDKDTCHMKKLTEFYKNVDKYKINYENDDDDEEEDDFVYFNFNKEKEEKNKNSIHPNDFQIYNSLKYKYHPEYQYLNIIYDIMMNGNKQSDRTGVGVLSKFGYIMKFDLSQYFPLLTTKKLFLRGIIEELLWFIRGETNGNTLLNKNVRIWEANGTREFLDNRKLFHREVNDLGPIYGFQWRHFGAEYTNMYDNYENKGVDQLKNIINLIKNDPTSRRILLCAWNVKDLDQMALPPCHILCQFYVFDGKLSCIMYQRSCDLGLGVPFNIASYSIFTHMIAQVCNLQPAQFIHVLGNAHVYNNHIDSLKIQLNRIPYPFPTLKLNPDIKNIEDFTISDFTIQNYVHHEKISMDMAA
method.description: biochemical
Ki values, listed per item
value.kind: Ki (nM)

CCc1nc(N)nc(N)c1OCCCOc1ccnc2ccccc12; 1.86
CCc1nc(N)nc(N)c1OCCCOc1ccccc1OCCCC(=O)O; 0.98
CCc1nc(N)nc(N)c1OCCCOc1ccnc2ccc(Cl)cc12; 2.37

====

method.description: Oral bioavailability and pharmacokinetics in male Sprague Dawley rats
Type: in vivo
experimental.context: rat, plasma, intravenous
value.kind: Vd (L/kg)

CCc1nc(N)nc(N)c1OCCCOc1ccccc1OCCCC(=O)O; 1.6
CCc1nc(N)nc(N)c1OCCCOc1ccnc2ccc(F)cc12; 17.3
CCc1nc(N)nc(N)c1OCCCOc1ccnc2ccc(Cl)cc12; 51.2
CCc1nc(N)nc(N)c1OCCCOc1cc(C)nc2cc(F)ccc12; 15.2
CCc1nc(N)nc(N)c1OCCCOc1cc(C)nc2ccccc12; 8.8

====

Tested on: P. chabaudi AS
method.description: Standard 4-day Peters' test against P. chabaudi AS in mice
Type: in vivo, Plasmodium chabaudi
experimental.context: Plasmodium chabaudi, 96 h; oral, 4-day Peters' test, 90% reduction in parasitaemia
value.kind: log10 ED90 (log10 of the value in mg/kg)

CCOC(=O)CCc1ccccc1OCCCOc1c(N)nc(N)nc1CC; -0.16
CCc1nc(N)nc(N)c1OCCCOc1cc(C)nc2ccccc12; -1.37
CCc1nc(N)nc(N)c1OCCCOc1cc(C)nc2cc(F)ccc12; -1.92
CCc1nc(N)nc(N)c1-c1ccc(Cl)cc1 [Pyrimethamine, pyrimethamine, reference compound]; -0.06
CCc1nc(N)nc(N)c1OCCCOc1ccccc1OCCCC(=O)O; 0.72
CCc1nc(N)nc(N)c1OCCCOc1ccnc2ccccc12; -2.00

====

method.description: Oral bioavailability and pharmacokinetics in male Sprague Dawley rats
Type: in vivo
experimental.context: i.v. and oral dosing
value.kind: Oral BA

CCc1nc(N)nc(N)c1OCCCOc1ccnc2ccc(Cl)cc12 [Compound P149]; 10 % of dose
CCc1nc(N)nc(N)c1OCCCOc1ccnc2ccc(F)cc12 [Compound P153]; 26 % of dose
CCc1nc(N)nc(N)c1OCCCOc1ccccc1OCCCC(=O)O [Compound P135]; 7.0 % of dose
CCc1nc(N)nc(N)c1OCCCOc1cc(C)nc2ccccc12 [Compound P154]; 9.3 % of dose
CCc1nc(N)nc(N)c1OCCCOc1ccnc2ccccc12 [Compound P113]; <2.0 % of dose
CCc1nc(N)nc(N)c1OCCCOc1cc(C)nc2cc(F)ccc12 [Compound P157]; 25.5 % of dose

====

method.description: Cytotoxicity in mammalian cells
Format: cell-based
experimental.context: African green monkey, Vero cells (African green monkey kidney epithelial cells)
value.kind: IC50 (nM)

CCOC(=O)CCCOc1ccccc1OCCCOc1c(N)nc(N)nc1CC; 5330
CCc1nc(N)nc(N)c1OCCCOc1cc(C)nc2ccccc12; 94
CCc1nc(N)nc(N)c1OCCCOc1ccnc2ccccc12; 119

====

Ki values, listed per item
study.target: Pf DHFR C59R + S108N + I164L (Plasmodium falciparum, UniProt A7UD81, C59R/I164L/S108N)
Sequence (A7UD81 whole entry C59R/S108N/I164L): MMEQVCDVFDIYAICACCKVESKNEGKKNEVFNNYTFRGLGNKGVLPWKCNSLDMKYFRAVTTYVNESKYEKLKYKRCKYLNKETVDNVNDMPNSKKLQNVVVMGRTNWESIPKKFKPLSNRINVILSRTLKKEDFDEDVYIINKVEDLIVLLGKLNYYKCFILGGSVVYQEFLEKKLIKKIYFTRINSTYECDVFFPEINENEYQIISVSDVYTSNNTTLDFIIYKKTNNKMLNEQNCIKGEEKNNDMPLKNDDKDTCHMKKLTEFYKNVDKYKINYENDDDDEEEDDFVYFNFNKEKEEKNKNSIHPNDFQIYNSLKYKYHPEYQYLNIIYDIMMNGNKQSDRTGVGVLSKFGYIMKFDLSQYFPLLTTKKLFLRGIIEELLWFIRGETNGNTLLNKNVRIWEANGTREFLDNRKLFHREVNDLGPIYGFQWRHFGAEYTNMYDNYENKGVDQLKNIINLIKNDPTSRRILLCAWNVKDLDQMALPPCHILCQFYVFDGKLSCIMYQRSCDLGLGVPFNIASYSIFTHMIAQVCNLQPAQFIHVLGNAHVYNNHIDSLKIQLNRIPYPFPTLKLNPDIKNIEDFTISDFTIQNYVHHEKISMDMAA
method.description: biochemical
value.kind: Ki (nM)

CCc1nc(N)nc(N)c1OCCCOc1ccnc2ccccc12; 3.06
CCc1nc(N)nc(N)c1OCCCOc1ccnc2ccc(Cl)cc12; 3.66
CCc1nc(N)nc(N)c1OCCCOc1ccccc1OCCCC(=O)O; 2.54

====

study.target: Pf DHFR N51I + C59R + S108N (Plasmodium falciparum, UniProt A7UD81, C59R/N51I/S108N)
Sequence (A7UD81 whole entry N51I/C59R/S108N): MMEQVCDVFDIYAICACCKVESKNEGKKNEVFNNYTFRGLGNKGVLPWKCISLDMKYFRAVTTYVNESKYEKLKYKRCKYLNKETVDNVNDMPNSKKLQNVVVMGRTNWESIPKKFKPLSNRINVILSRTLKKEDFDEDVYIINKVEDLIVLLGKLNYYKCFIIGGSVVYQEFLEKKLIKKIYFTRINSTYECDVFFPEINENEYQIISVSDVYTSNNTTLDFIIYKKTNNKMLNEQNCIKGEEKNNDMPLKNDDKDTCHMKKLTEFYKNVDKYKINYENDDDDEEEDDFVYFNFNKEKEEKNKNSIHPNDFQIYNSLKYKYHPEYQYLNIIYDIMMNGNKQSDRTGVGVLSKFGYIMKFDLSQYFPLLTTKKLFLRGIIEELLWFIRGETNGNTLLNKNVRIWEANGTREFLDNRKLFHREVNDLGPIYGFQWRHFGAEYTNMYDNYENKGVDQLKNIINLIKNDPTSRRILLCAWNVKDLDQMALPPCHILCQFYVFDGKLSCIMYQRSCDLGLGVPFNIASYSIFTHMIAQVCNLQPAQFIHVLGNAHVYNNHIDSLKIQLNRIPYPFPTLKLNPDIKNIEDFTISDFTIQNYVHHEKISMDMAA
method.description: biochemical
Ki values, listed per item
value.kind: Ki (nM)

CCc1nc(N)nc(N)c1OCCCOc1ccnc2ccccc12 [Compound P113]; 1.82
CCc1nc(N)nc(N)c1OCCCOc1ccnc2ccc(Cl)cc12 [Compound P149]; 3.4
CCc1nc(N)nc(N)c1OCCCOc1ccccc1OCCCC(=O)O [Compound P135]; 1.2

====

study.target: Pf DHFR N51I + C59R + S108N + I164L (Plasmodium falciparum, UniProt A7UD81, C59R/I164L/N51I/S108N)
Sequence (A7UD81 whole entry N51I/C59R/S108N/I164L): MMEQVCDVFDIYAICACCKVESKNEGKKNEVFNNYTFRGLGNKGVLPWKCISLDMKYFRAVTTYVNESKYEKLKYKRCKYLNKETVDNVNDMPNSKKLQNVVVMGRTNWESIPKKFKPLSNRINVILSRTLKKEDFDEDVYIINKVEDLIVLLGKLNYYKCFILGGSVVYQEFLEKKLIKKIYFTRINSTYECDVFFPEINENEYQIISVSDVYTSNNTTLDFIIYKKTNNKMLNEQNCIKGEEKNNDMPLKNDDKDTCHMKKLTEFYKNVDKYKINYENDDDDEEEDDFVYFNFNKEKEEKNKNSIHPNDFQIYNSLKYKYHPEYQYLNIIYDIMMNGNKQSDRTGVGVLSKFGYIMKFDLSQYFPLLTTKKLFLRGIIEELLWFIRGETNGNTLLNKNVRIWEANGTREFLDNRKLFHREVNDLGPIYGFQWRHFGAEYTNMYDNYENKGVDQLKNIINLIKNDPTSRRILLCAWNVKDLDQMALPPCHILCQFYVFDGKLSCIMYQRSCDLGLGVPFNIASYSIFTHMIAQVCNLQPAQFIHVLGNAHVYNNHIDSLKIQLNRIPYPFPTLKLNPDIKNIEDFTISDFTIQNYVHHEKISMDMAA
method.description: biochemical
Flag rule - Ki less than 3 nM flags Fulfilled; the remaining entries get Not fulfilled.

CCc1nc(N)nc(N)c1OCCCOc1cc(C)nc2cc(F)ccc12; Not fulfilled
CCOC(=O)CCCOc1ccc2nc(C)cc(OCCCOc3c(N)nc(N)nc3CC)c2c1; Fulfilled
CCc1nc(N)nc(N)c1OCCCOc1cc(C)nc2ccccc12; Not fulfilled
CCOC(=O)CCCOc1ccccc1OCCCOc1c(N)nc(N)nc1CC; Not fulfilled
CCOC(=O)CCc1ccccc1OCCCOc1c(N)nc(N)nc1CC; Fulfilled
CCc1nc(N)nc(N)c1OCCCOc1ccnc2ccc(F)cc12; Not fulfilled
CCc1nc(N)nc(N)c1OCCCOc1ccnc2ccccc12; Not fulfilled
CCc1nc(N)nc(N)c1OCCCOc1ccnc2ccc(Cl)cc12; Not fulfilled
CCc1nc(N)nc(N)c1OCCCOc1cc(C)nc2ccc(OCCCC(=O)O)cc12; Fulfilled
CCc1nc(N)nc(N)c1OCCCOc1ccccc1OCCCC(=O)O; Not fulfilled
CCc1nc(N)nc(N)c1OCCCOc1ccccc1CCC(=O)O; Fulfilled

====

log10 ED50 values, listed per item
System: P. chabaudi AS
method.description: Standard 4-day Peters' test against P. chabaudi AS in mice
Type: in vivo, Plasmodium chabaudi
experimental.context: Plasmodium chabaudi, 96 h; oral, 4-day Peters' test, 50% reduction in parasitaemia
value.kind: log10 ED50 (log10 of the value in mg/kg)

CCc1nc(N)nc(N)c1OCCCOc1ccccc1OCCCC(=O)O; 0.30
CCc1nc(N)nc(N)c1OCCCOc1ccnc2ccccc12; -2.22
CCc1nc(N)nc(N)c1OCCCOc1cc(C)nc2ccccc12; -2.22
CCc1nc(N)nc(N)c1OCCCOc1ccnc2ccc(F)cc12; -2.22
CCc1nc(N)nc(N)c1OCCCOc1cc(C)nc2cc(F)ccc12; -2.10
CCOC(=O)CCc1ccccc1OCCCOc1c(N)nc(N)nc1CC; -0.68
CCc1nc(N)nc(N)c1OCCCOc1ccnc2ccc(Cl)cc12; -2.00
CCc1nc(N)nc(N)c1-c1ccc(Cl)cc1 [Pyrimethamine, pyrimethamine, reference compound]; -0.60

====

Test system: P. falciparum TM4/8.2 (wild type)
method.description: In vitro anti-plasmodial activity, [3H]-hypoxanthine incorporation
Assay type: cell-based, Plasmodium falciparum
experimental.context: Plasmodium falciparum, read-out: IC50-P. falciparum TM4/8.2 (WT), TM4/8.2; listed as printed in nM
value.kind: IC50

C[C@H]1[C@@H](O)O[C@@H]2O[C@@]3(C)CC[C@H]4[C@H](C)CC[C@@H]1[C@@]24OO3 [Dihydroartemisinin, reference compound]; 1.69 nM

====

study.target: Pf DHFR WT (Plasmodium falciparum)
Flag rule - Ki less than 0.7 nM flags yes (1); the remaining entries get no (0).

CCc1nc(N)nc(N)c1OCCCOc1cc(C)nc2cc(F)ccc12; no (0)
CCc1nc(N)nc(N)c1OCCCOc1ccccc1CCC(=O)O; yes (1)
CCc1nc(N)nc(N)c1OCCCOc1cc(C)nc2ccccc12; no (0)
CCOC(=O)CCc1ccccc1OCCCOc1c(N)nc(N)nc1CC; yes (1)
